experiment: in vivo; design: species or system beagle dogs; settings: dog, po, 300 mg
*1 amine or outer side, *2 acyl side, *3 side chain or, on linkers, in order; H or OH if unused. Side-chain parts run from the residue outwards. [ ]: non-standard residue; d: D form. The star is where a group is joined. C16 diacid = O=C(O)CCCCCCCCCCCCCCC(=O)*; γGlu = O=C(O)[C@H](CCC(=O)[*:2])N[*:1]; εLys = N[C@@H](CCCCN[*:1])C(=O)[*:2]; AEEA = NCCOCCOCC(=O)O; Aib = CC(C)(N)C(=O)O; Sar = CNCC(=O)O
VALUE TYPE: Cmax/Dose (kg/L)
The reply should contain only the number, in kg/L.

# count of solved cases: 2
SUBSTANCE	VALUE TYPE	READING UNIT	REPORTED RESULT
H-K([γGlu-C16 diacid])[Sar]Y[Aib]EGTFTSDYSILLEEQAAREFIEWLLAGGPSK([AEEA-AEEA-γGlu-C16 diacid])GAPPPS-OH [Compound 3]	Cmax/Dose	kg/L	0.32
H-K([γGlu-C16 diacid])VY[Aib]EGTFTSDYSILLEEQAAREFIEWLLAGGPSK([AEEA-AEEA-γGlu-C16 diacid])GAPPPS-OH [Non-converting compound 1]	Cmax/Dose	kg/L	0.21

Suppose we examine the substance H-K([γGlu-C16 diacid])[Sar]Y[Aib]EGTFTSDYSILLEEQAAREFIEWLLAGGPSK([εLys-εLys-γGlu-C16 diacid])GAPPPS-OH [Compound 12] ; what Cmax/Dose value has been reported?
0.46

----------
AUC/Dose values for the substances below.
experiment: in vivo; design: species or system beagle dogs; conditions: dog, po, 300 mg
*1 amine or outer side, *2 acyl side, *3 side chain or, on linkers, in order; H or OH if unused. Side-chain parts run from the residue outwards. [ ]: non-standard residue; d: D form. The star is where a group is joined. N(2-Aminoethyl)Gly = O=C(CN(CCN[*:3])[*:1])[*:2]; C18 diacid = O=C(O)CCCCCCCCCCCCCCCCC(=O)*; C16 diacid = O=C(O)CCCCCCCCCCCCCCC(=O)*; γGlu = O=C(O)[C@H](CCC(=O)[*:2])N[*:1]; εLys = N[C@@H](CCCCN[*:1])C(=O)[*:2]; AEEA = NCCOCCOCC(=O)O; Aib = CC(C)(N)C(=O)O; Sar = CNCC(=O)O
The reply should contain only the number, in kg·h/L.

SUBSTANCE	REPORTED RESULT
H-L[N(2-Aminoethyl)Gly]([γGlu-C16 diacid])Y[Aib]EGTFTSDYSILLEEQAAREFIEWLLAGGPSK([AEEA-AEEA-γGlu-C16 diacid])GAPPPS-OH [Compound 5]	23.4
H-K([γGlu-C16 diacid])VY[Aib]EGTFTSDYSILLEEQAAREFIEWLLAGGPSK([AEEA-AEEA-γGlu-C16 diacid])GAPPPS-OH [Non-converting compound 1]	20.1

Could you now look at the following substance, please?
Suppose we examine the substance H-K([γGlu-C18 diacid])[Sar]Y[Aib]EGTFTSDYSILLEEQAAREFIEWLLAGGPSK([εLys-εLys-γGlu-C16 diacid])GAPPPS-OH [Compound 13] ; what AUC/Dose value has been reported?
41.3

----------
experiment: in vivo; set-up: species or system beagle dogs; conditions: dog, po, 300 mg
*1 amine or outer side, *2 acyl side, *3 side chain or, on linkers, in order; H or OH if unused. Side-chain parts run from the residue outwards. [ ]: non-standard residue; d: D form. The star is where a group is joined. X1 = O=C(O)CCCCCCCCCCCCCCC(=O)N[C@@H](CCC(=O)NCCCC[C@H](NC(=O)CC[C@H](NC(=O)CCCCCCCCCCCCCCC(=O)O)C(=O)O)C(=O)*)C(=O)O; N(2-Aminoethyl)Gly = O=C(CN(CCN[*:3])[*:1])[*:2]; C18 diacid = O=C(O)CCCCCCCCCCCCCCCCC(=O)*; C16 diacid = O=C(O)CCCCCCCCCCCCCCC(=O)*; γGlu = O=C(O)[C@H](CCC(=O)[*:2])N[*:1]; εLys = N[C@@H](CCCCN[*:1])C(=O)[*:2]; AEEA = NCCOCCOCC(=O)O; Aib = CC(C)(N)C(=O)O; Sar = CNCC(=O)O
With a cut-off of 0.2 kg/L, any Cmax/Dose strictly below it is called y; any Cmax/Dose meeting it or above is called n.

Some entries whose results are on file:
SUBSTANCE	CLASS LABEL
H-G[N(2-Aminoethyl)Gly]([γGlu-C16 diacid])Y[Aib]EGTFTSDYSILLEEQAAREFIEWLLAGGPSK([AEEA-AEEA-γGlu-C16 diacid])GAPPPS-OH [Compound 2]	y
H-K([γGlu-C16 diacid])VY[Aib]EGTFTSDYSILLEK([εLys-εLys-γGlu-C18 diacid])QAAREFIEWLLAGGPSSGAPPPS-OH [Non-converting compound 3]	n
H-K([γGlu-C16 diacid])[Sar]Y[Aib]EGTFTSDYSILLEK([εLys-εLys-γGlu-C18 diacid])QAAREFIEWLLAGGPSSGAPPPS-OH [Compound 16]	n
H-K([γGlu-C16 diacid])VY[Aib]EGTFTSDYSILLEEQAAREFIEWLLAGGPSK([εLys-εLys-γGlu-C16 diacid])GAPPPS-OH [Non-converting compound 2]	y

Let us examine a further case.
Could you please tell me whether Cmax/Dose recorded for H-K(X1)[Sar]Y[Aib]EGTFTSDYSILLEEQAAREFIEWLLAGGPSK([εLys-εLys-γGlu-C16 diacid])GAPPPS-OH [Compound 14] is less than 0.2 kg/L?
n

----------
half-life at 100 μM values for the substances below.
experiment: physchem; assay type: physicochemical; conditions: buffer, pH 7.4
*1 amine or outer side, *2 acyl side, *3 side chain or, on linkers, in order; H or OH if unused. Side-chain parts run from the residue outwards. [ ]: non-standard residue; d: D form. The star is where a group is joined. C16 diacid = O=C(O)CCCCCCCCCCCCCCC(=O)*; γGlu = O=C(O)[C@H](CCC(=O)[*:2])N[*:1]; AEEA = NCCOCCOCC(=O)O; Aib = CC(C)(N)C(=O)O; Sar = CNCC(=O)O
The reply should contain only the number, in h.

SUBSTANCE	REPORTED RESULT
H-[dK]([AEEA-AEEA-γGlu-C16 diacid])[Sar]Y[Aib]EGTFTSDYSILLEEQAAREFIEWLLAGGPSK([AEEA-AEEA-γGlu-C16 diacid])GAPPPS-OH [Compound 10]	195

Could you now look at the following substance, please?
Suppose we examine the substance H-K([γGlu-γGlu-C16 diacid])[Sar]Y[Aib]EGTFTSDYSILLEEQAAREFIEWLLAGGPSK([AEEA-AEEA-γGlu-C16 diacid])GAPPPS-OH [Compound 8] ; what half-life at 100 μM value has been reported?
125

----------
assay: in vivo; design: species or system beagle dogs; conditions: dog, po, 300 mg
*1 amine or outer side, *2 acyl side, *3 side chain or, on linkers, in order; H or OH if unused. Side-chain parts run from the residue outwards. [ ]: non-standard residue; d: D form. The star is where a group is joined. N(2-Aminoethyl)Gly = O=C(CN(CCN[*:3])[*:1])[*:2]; C18 diacid = O=C(O)CCCCCCCCCCCCCCCCC(=O)*; C16 diacid = O=C(O)CCCCCCCCCCCCCCC(=O)*; γGlu = O=C(O)[C@H](CCC(=O)[*:2])N[*:1]; εLys = N[C@@H](CCCCN[*:1])C(=O)[*:2]; AEEA = NCCOCCOCC(=O)O; Aib = CC(C)(N)C(=O)O; Sar = CNCC(=O)O
True means recorded Cmax/Dose is 0.3 kg/L or above; False means it is below 0.3 kg/L.

SUBSTANCE	CLASS LABEL
H-L[N(2-Aminoethyl)Gly]([γGlu-C16 diacid])Y[Aib]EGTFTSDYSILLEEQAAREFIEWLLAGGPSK([AEEA-AEEA-γGlu-C16 diacid])GAPPPS-OH [Compound 5]	False
H-[dK]([γGlu-C16 diacid])[Sar]Y[Aib]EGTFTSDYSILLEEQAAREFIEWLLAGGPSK([AEEA-AEEA-γGlu-C16 diacid])GAPPPS-OH [Compound 1]	True
H-K([γGlu-C18 diacid])[Sar]Y[Aib]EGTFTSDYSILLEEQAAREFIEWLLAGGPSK([εLys-εLys-γGlu-C16 diacid])GAPPPS-OH [Compound 13]	True

Let us examine a further case.
Check this substance for Cmax/Dose at or above 0.3 kg/L: H-K([γGlu-C18 diacid])[Sar]Y[Aib]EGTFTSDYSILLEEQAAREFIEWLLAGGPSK([εLys-εLys-γGlu-C18 diacid])GAPPPS-OH [Compound 15]
False
